Reference for the values: patent US8703961B2

Entries and their measured IC50 follow.
TARGET UNDER TEST: UniProt:O75582
Sequence (O75582 whole entry, species assumed): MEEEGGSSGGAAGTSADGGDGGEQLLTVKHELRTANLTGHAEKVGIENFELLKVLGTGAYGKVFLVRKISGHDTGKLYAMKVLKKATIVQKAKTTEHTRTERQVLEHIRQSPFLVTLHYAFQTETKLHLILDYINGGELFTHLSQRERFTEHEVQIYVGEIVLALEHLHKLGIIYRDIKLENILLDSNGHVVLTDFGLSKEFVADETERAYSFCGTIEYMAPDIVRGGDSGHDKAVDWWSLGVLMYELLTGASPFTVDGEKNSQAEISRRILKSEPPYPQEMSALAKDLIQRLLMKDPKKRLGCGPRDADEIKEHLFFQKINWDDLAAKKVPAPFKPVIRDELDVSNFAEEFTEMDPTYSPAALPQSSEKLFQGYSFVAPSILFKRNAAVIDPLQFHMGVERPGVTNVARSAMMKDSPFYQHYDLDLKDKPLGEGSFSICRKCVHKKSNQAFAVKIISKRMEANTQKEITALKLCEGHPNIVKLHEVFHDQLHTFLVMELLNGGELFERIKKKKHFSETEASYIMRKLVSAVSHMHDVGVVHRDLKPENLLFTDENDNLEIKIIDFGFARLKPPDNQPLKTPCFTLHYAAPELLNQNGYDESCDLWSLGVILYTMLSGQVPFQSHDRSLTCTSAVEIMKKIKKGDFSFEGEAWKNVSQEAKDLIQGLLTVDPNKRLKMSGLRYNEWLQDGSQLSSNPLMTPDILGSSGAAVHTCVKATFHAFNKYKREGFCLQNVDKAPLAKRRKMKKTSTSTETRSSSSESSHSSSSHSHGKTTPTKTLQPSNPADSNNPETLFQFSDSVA
METRIC: IC50

COMPOUND | TARGET UNDER TEST | DATA VALUE
CC(C)(C)OC(=O)Nc1ncsc1C#CCN1C(=O)c2ccccc2C1=O | UniProt:O75582 | > 1 µM
CC(C)(C)OC(=O)Nc1nc(-c2ccncc2)sc1C#CCN1CCOCC1 | UniProt:O75582 | 10 to 100 µM
Nc1ncsc1C#Cc1cccc(O)c1 | UniProt:O75582 | 10 to 100 µM
c1ccc(Cc2c[nH]c3ncsc23)cc1 [Compound A7, 6-benzyl-4H-pyrrolo[2,3-d]thiazole] | UniProt:O75582 | 1 to 10 µM
Nc1ncsc1C#Cc1cnc2[nH]ccc2c1 | UniProt:O75582 | 10 to 100 µM

----------
Parameter remaining activity at 1 µM: see the listing below.
TARGET UNDER TEST: NUAK1 (Homo sapiens, UniProt O60285)
Construct: purchased
Sequence (O60285 1-661): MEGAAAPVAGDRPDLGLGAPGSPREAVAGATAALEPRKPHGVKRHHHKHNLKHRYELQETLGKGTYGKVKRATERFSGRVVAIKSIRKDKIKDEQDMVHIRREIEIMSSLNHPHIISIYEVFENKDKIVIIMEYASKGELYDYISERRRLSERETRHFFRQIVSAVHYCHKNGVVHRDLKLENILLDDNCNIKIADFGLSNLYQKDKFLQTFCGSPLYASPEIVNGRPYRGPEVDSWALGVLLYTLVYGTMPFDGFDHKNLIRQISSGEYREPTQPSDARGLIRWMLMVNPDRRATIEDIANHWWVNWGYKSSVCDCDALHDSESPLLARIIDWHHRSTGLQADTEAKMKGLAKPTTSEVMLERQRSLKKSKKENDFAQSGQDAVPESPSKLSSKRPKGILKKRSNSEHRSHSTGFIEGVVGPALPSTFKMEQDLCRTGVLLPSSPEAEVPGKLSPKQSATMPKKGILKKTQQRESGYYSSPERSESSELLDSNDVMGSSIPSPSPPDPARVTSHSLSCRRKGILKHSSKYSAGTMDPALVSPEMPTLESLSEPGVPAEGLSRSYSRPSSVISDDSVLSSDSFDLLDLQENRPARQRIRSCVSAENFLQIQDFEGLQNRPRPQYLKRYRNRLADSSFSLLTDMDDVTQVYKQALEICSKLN
METHOD DESCRIPTION: filter binding assay of NUAK1 inhibition
Assay type: biochemical
CONDITIONS USED: read-out: residual kinase activity NUAK1

COMPOUND | TARGET UNDER TEST | remaining activity at 1 µM (%)
Nc1ncsc1C#Cc1cccc(O)c1 | NUAK1 (Homo sapiens, UniProt O60285) | 49
c1ccc(Cc2c[nH]c3ncsc23)cc1 [Compound A7, 6-benzyl-4H-pyrrolo[2,3-d]thiazole] | NUAK1 (Homo sapiens, UniProt O60285) | 27
Nc1ncsc1C#Cc1cnc2[nH]ccc2c1 | NUAK1 (Homo sapiens, UniProt O60285) | 16
CC(C)(C)OC(=O)Nc1ncsc1C#CCN1C(=O)c2ccccc2C1=O | NUAK1 (Homo sapiens, UniProt O60285) | 24

----------
IC50, KDR (VEGFR) (Homo sapiens, UniProt P35968): measured values
METRIC: IC50

COMPOUND | METRIC | DATA VALUE
c1ccc(Cc2c[nH]c3ncsc23)cc1 [Compound A7, 6-benzyl-4H-pyrrolo[2,3-d]thiazole] | IC50 | 1000 to 10000 nM
CC(C)(C)OC(=O)Nc1ncsc1C#CCN1C(=O)c2ccccc2C1=O | IC50 | > 1000 nM
Nc1ncsc1C#Cc1cccc(O)c1 | IC50 | 1000 to 10000 nM
Nc1ncsc1C#Cc1cnc2[nH]ccc2c1 | IC50 | 10 to 1000 nM
CC(C)(C)OC(=O)Nc1nc(-c2ccncc2)sc1C#CCN1CCOCC1 | IC50 | > 1000 nM
